# inhibition at 10 µM per entry
# ASSAYED SYSTEM: hERG (KCNH2) (Homo sapiens, UniProt Q12809)
# Sequence (Q12809 whole entry): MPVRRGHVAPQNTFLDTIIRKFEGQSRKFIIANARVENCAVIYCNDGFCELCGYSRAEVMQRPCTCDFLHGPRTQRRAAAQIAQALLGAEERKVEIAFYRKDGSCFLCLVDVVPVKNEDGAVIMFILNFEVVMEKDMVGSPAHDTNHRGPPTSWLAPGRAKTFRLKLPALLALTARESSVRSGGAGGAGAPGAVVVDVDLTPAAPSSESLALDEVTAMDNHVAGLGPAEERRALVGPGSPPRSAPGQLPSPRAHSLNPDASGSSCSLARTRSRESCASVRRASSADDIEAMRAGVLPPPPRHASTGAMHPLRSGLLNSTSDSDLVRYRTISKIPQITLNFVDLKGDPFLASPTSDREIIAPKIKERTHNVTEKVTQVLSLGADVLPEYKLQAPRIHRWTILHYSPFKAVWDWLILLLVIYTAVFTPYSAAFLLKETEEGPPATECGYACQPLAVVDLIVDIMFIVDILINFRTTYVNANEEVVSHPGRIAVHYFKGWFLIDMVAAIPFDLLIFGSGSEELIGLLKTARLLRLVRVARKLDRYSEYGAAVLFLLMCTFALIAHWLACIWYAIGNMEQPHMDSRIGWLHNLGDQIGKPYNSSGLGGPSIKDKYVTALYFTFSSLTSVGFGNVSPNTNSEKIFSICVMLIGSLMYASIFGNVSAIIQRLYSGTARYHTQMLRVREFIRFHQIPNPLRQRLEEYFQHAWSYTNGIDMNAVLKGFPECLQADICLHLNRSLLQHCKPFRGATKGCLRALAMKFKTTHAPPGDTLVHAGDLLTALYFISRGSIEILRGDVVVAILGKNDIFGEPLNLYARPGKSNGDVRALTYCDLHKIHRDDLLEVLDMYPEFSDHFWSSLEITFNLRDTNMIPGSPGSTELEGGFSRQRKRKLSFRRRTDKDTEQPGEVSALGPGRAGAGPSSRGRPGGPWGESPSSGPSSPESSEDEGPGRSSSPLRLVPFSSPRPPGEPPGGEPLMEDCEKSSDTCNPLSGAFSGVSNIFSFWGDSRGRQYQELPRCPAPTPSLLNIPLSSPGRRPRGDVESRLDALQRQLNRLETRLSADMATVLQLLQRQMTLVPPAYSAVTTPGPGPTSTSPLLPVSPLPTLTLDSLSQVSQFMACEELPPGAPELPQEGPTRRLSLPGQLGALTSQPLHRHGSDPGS
# EXPERIMENT NOTES: Inhibition of human ERG at 10 uM by patch clamp technique

# CHEMICAL SMILES, inhibition at 10 µM
data = [
    ("N#Cc1cccc(S(=O)(=O)N2CCC3=Cc4c(cnn4-c4ccc(F)cc4)C[C@]3(C(=O)c3ccccn3)C2)c1", "42%"),
    ("O=C(c1ccccn1)[C@]12Cc3cnn(-c4ccc(F)cc4)c3C=C1CCN(S(=O)(=O)c1ccc(F)c(F)c1)C2", "35%"),
    ("O=C(c1ccccn1)[C@]12Cc3cnn(-c4ccc(F)cc4)c3C=C1CCN(S(=O)(=O)c1ccc(C(F)(F)F)c(F)c1)C2", "17%"),
    ("O=C(c1ccccn1)[C@]12Cc3cnn(-c4ccc(F)cc4)c3C=C1CCN(S(=O)(=O)c1ccc(Cl)c(Cl)c1)C2", "16%"),
    ("O=C(c1ccccn1)[C@]12Cc3cnn(-c4ccc(F)cc4)c3C=C1CCN(S(=O)(=O)c1ccc(F)c(C(F)(F)F)c1)C2", "31%"),
    ("Cc1cccc(S(=O)(=O)N2CCC3=Cc4c(cnn4-c4ccc(F)cc4)C[C@]3(C(=O)c3ccccn3)C2)c1", "30%"),
]

Request: Return reported inhibition at 10 µM; argument: COc1cccc(S(=O)(=O)N2CCC3=Cc4c(cnn4-c4ccc(F)cc4)C[C@]3(C(=O)c3ccccn3)C2)c1
Result: 36%

Request: Return reported inhibition at 10 µM; argument: Cc1ccc(S(=O)(=O)N2CCC3=Cc4c(cnn4-c4ccc(F)cc4)C[C@]3(C(=O)c3ccccn3)C2)cc1
Result: 59%

Request: Return reported inhibition at 10 µM; argument: O=C(c1ccccn1)[C@]12Cc3cnn(-c4ccc(F)cc4)c3C=C1CCN(S(=O)(=O)c1cccc(Cl)c1)C2
Result: 35%

Request: Return reported inhibition at 10 µM; argument: Cc1ccccc1S(=O)(=O)N1CCC2=Cc3c(cnn3-c3ccc(F)cc3)C[C@]2(C(=O)c2ccccn2)C1
Result: 45%
